// reported OD450 nm for each item listed
Biological target: cynomolgus IL-13 (purchased from sino biological) (cynomolgus) (UniProt Q0PW92)
Sequence (Q0PW92 entry or part of it): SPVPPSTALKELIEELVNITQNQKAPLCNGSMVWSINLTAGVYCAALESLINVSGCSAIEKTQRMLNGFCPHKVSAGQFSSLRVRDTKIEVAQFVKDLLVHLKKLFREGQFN
Assay: ELISA, cynomolgus IL-13; antibody at 2.67 nM
Would you mind answering with just the numeric figure?

Here are 3 binders together with their reported answers.
binder="35E2C3 (lead antibody, mouse hybridoma) (antibody, V domains shown, Mouse monoclonal antibody purified from hybridoma supernatant on Protein G) VH: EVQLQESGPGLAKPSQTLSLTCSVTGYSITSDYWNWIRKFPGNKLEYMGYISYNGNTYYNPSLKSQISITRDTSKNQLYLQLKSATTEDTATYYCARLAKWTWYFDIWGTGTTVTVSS VL: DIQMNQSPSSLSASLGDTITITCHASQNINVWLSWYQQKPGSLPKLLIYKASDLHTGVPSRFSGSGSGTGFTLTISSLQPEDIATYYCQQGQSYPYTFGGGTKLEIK" property_name="OD450 nm" endpoint_result=0.52
binder="c28A2E11 (mouse-human chimeric IL-13 antibody) (antibody, V domains shown) VH: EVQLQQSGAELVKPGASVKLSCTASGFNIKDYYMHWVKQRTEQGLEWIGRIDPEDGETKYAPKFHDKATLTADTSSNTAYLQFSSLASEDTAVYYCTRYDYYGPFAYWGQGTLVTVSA VL: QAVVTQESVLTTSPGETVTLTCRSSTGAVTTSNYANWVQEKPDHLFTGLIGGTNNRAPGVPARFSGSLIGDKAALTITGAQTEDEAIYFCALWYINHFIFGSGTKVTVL" property_name="OD450 nm" endpoint_result=1.34
binder="29D9H8 (lead antibody, mouse hybridoma) (antibody, V domains shown, Mouse monoclonal antibody purified from hybridoma supernatant on Protein G) VH: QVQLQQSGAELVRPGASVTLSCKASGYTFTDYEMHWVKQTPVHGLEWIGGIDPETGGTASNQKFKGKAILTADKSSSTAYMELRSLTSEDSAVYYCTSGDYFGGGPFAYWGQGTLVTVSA VL: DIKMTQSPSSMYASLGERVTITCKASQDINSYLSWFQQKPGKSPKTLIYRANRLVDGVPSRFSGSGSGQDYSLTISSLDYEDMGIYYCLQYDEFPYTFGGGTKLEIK" property_name="OD450 nm" endpoint_result=2.36

Could you now look at the following binder, please?
In: Consider the binder shown here: c35E2C3 (mouse-human chimeric IL-13 antibody) (antibody, V domains shown) VH: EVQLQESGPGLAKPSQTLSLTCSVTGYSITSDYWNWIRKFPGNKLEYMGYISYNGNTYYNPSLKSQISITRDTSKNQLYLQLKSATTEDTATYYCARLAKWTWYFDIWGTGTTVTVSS VL: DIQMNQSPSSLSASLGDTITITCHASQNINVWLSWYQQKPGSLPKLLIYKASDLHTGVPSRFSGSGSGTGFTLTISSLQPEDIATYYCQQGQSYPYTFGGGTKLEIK What is its recorded OD450 nm?
Out: 1.63
